- system_tested: T1, SNTA1, Q13424
- T1 sequence (Q13424 82-180, limits assumed, looked up): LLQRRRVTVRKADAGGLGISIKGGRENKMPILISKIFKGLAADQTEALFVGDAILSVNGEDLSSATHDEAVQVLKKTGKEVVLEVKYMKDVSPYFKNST
- assay_summary: holdup assay
- Set-up: key: below the threshold = too weak to quantify, mostly under pKd 3.1 to 4
- condition_label: plain residues with an end cap or a label only (N-terminal biotin on a linker: ado-ado)
endpoint_label: pKd

{"binder": "RGKNRRQSIF [CDK18, Q07002]", "endpoint_value": "below the threshold"}
{"binder": "GDSSRKEYFI [GYPC, P04921]", "endpoint_value": "below the threshold"}
{"binder": "SGDGKTSVWI [GJC1, P36383]", "endpoint_value": "below the threshold"}
